B1: FBF1 (parent)
chain: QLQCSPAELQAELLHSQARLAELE

Variants of: B1
Test: protein stability index of a GFP-peptide fusion (GPS, HEK-293T) (PSI 1-6); higher = more stable;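 note: lentivirally expressed fusions sorted by FACS into six bins by GFP to DsRed ratio, PSI derived from sequencing read proportions per bin multiplied by bin number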
Conditions: c terminus: a fixed tail appended
What protein stability index was measured for each of the following?

Answer with reported protein stability index of Q3P
3.01

Find the measured protein stability index of R19Q and report it.
2.94

State, in one line, measured protein stability index of R19K
3.05

Please list protein stability index recorded for the variant A11K
3.04
